Test system: SUP-M2 (T-Cell Non-Hodgkin's Lymphoma)
METHOD_NOTES: Bliss excess, mean over the matrix (fraction); higher = more synergy
For each entry below, report its Bliss excess value.

IN: Lookup: Bliss excess / SUP-M2 (T-Cell Non-Hodgkin's Lymphoma) / CCN(CCO)CCCOc1ccc2c(Nc3cc(CC(=O)Nc4cccc(F)c4)[nH]n3)ncnc2c1 [AZD2811] + C=CCn1c(=O)c2cnc(Nc3ccc(N4CCN(C)CC4)cc3)nc2n1-c1cccc(C(C)(C)O)n1 [AZD1775] (first compound max 1 µM, partner max 1 µM)
OUT: -0.036

IN: Cool, now CCc1c2c(nc3ccc(O)cc13)-c1cc3c(c(=O)n1C2)COC(=O)[C@]3(O)CC [SN-38] + O=C(c1cc(Cc2n[nH]c(=O)c3ccccc23)ccc1F)N1CCN(C(=O)C2CC2)CC1 [Olaparib] (first compound max 0.3 µM, 7x7, partner max 10 µM)
OUT: 0.0641

IN: Cool, now COc1cccc(OCCCN)c1-c1cc(Nc2cnc(C#N)cn2)n[nH]1 [Prexasertib] + O=C(c1cc(Cc2n[nH]c(=O)c3ccccc23)ccc1F)N1CCN(C(=O)C2CC2)CC1 [Olaparib] (first compound max 1 µM, 7x7, partner max 10 µM)
OUT: 0.0298

IN: Cool, now Cc1c2c(nn1C)CSCc1cc(n(C)n1)CSc1cc(c3ccccc3c1)OCCCc1c(C(=O)O)n(C)c3c-2c(Cl)ccc13 [AZD5991] + CN(C)CCCOc1ccc(-c2ccc3ncc4c(c3c2)n(C2CCOCC2)c(=O)n4C)cn1 [AZD0156] (first compound max 1 µM, 7x7, partner max 1 µM)
OUT: -0.0012

###

System: BHT-101 (Thyroid Gland Carcinoma)
METHOD_NOTES: combination Emax (second highest fraction inhibited in the dose matrix, 72 h); higher = more inhibition; extreme values may be limits of the assay
READOUT_LABEL: combination Emax
Please state the value as a number alone, without comment.

IN: Need combination Emax, item CC(=O)c1c(C)c2cnc(Nc3ccc(N4CCNCC4)cn3)nc2n(C2CCCC2)c1=O [Palbociclib] + Cn1cnc2c(F)c(Nc3ccc(Br)cc3Cl)c(C(=O)NOCCO)cc21 [Selumetinib] (first compound max 10 µM, 7x7, partner max 10 µM)
OUT: 0.813

IN: Cool, now CN(CCO)CC[C@H](CSc1ccccc1)Nc1ccc(S(=O)(=O)NC(=O)c2ccc(N3CCC([C@@H](O)c4ccccc4-c4ccc(Cl)cc4)CC3)cc2)cc1S(=O)(=O)C(F)(F)F [AZD4320] + Cn1cnc2c(F)c(Nc3ccc(Br)cc3Cl)c(C(=O)NOCCO)cc21 [Selumetinib] (first compound max 1 µM, 7x7, partner max 3 µM)
OUT: 0.852

IN: Cool, now C[C@@H](c1ccc2nccn2c1)n1nnc2ncc(-c3cnn(C)c3)nc21 [Savolitinib] + CC1(C)CCC(CN2CCN(c3ccc(C(=O)NS(=O)(=O)c4ccc(NCC5CCOCC5)c([N+](=O)[O-])c4)c(Oc4cnc5[nH]ccc5c4)c3)CC2)=C(c2ccc(Cl)cc2)C1 [Venetoclax] (first compound max 1 µM, 7x7, partner max 1 µM)
OUT: 0.14

###

Tested on: ES6 (Ewing's Sarcoma)
METHOD_NOTES: Bliss excess, mean over the matrix (fraction); higher = more synergy
READOUT_LABEL: Bliss excess
Please state the value as a number alone, without comment.

IN: Lookup: Bliss excess / ES6 (Ewing's Sarcoma) / Cc1nc(Nc2ncc(C(=O)Nc3c(C)cccc3Cl)s2)cc(N2CCN(CCO)CC2)n1 [Dasatinib] + CC(=O)Nc1cccc(-n2c(=O)n(C3CC3)c(=O)c3c(Nc4ccc(I)cc4F)n(C)c(=O)c(C)c32)c1 [Trametinib] (first compound max 2 µM, 7x7, partner max 1 µM)
OUT: -0.0495

IN: Cool, now CS(=O)(=O)CCNCc1ccc(-c2ccc3ncnc(Nc4ccc(OCc5cccc(F)c5)c(Cl)c4)c3c2)o1 [Lapatinib] + C[C@@H](Oc1cc(-c2cnn(C3CCNCC3)c2)cnc1N)c1c(Cl)ccc(F)c1Cl [Crizotinib] (first compound max 10 µM, 7x7, partner max 10 µM)
OUT: -0.0437

IN: Cool, now CC(=O)c1c(C)c2cnc(Nc3ccc(N4CCNCC4)cn3)nc2n(C2CCCC2)c1=O [Palbociclib] + Cc1c2c(nn1C)CSCc1cc(n(C)n1)CSc1cc(c3ccccc3c1)OCCCc1c(C(=O)O)n(C)c3c-2c(Cl)ccc13 [AZD5991] (first compound max 10 µM, 7x7, partner max 1 µM)
OUT: -0.0326

IN: Cool, now NC1(C(=O)N[C@@H](CCO)c2ccc(Cl)cc2)CCN(c2ncnc3[nH]ccc23)CC1 [Capivasertib] + COc1nnc2ccc(N3CCC(c4ccc(OCCN5CCN(C)C(=O)[C@H]5C)cc4)CC3)nn12 [AZD5153] (first compound max 10 µM, 7x7, partner max 1 µM)
OUT: 0.0103

IN: Cool, now Cn1cnc2c(F)c(Nc3ccc(Br)cc3Cl)c(C(=O)NOCCO)cc21 [Selumetinib] + C[C@@H]1COCCN1C2=NC(=NC(=C2)C3(CC3)[S@](=N)(=O)C)C4=C5C=CNC5=NC=C4 [AZD6738] (first compound max 10 µM, 7x7, partner max 10 µM)
OUT: -0.043

IN: Cool, now Cc1c2c(nn1C)CSCc1cc(n(C)n1)CSc1cc(c3ccccc3c1)OCCCc1c(C(=O)O)n(C)c3c-2c(Cl)ccc13 [AZD5991] + Nc1ccn([C@@H]2O[C@H](CO)[C@@H](O)C2(F)F)c(=O)n1 [Gemcitabine] (first compound max 1 µM, 7x7, partner max 0.3 µM)
OUT: -0.002

IN: Cool, now N#Cc1cnc(Nc2cc(NC[C@H]3CNCCO3)c(C(F)(F)F)cn2)cn1 [SRA737] + CCc1c2c(nc3ccc(O)cc13)-c1cc3c(c(=O)n1C2)COC(=O)[C@]3(O)CC [SN-38] (first compound max 10 µM, 7x7, partner max 0.3 µM)
OUT: -0.0423

IN: Cool, now COc1nnc2ccc(N3CCC(c4ccc(OCCN5CCN(C)C(=O)[C@H]5C)cc4)CC3)nn12 [AZD5153] + Cn1cnc2c(F)c(Nc3ccc(Br)cc3Cl)c(C(=O)NOCCO)cc21 [Selumetinib] (first compound max 1 µM, 7x7, partner max 10 µM)
OUT: 0.053

IN: Cool, now O=C(c1cc(Cc2n[nH]c(=O)c3ccccc23)ccc1F)N1CCN(C(=O)C2CC2)CC1 [Olaparib] + CC1(C)CCC(CN2CCN(c3ccc(C(=O)NS(=O)(=O)c4ccc(NCC5CCOCC5)c([N+](=O)[O-])c4)c(Oc4cnc5[nH]ccc5c4)c3)CC2)=C(c2ccc(Cl)cc2)C1 [Venetoclax] (first compound max 10 µM, 7x7, partner max 1 µM)
OUT: -0.0549

IN: Cool, now Cn1cnc2c(F)c(Nc3ccc(Br)cc3Cl)c(C(=O)NOCCO)cc21 [Selumetinib] + CCN(CCO)CCCOc1ccc2c(Nc3cc(CC(=O)Nc4cccc(F)c4)[nH]n3)ncnc2c1 [AZD2811] (first compound max 10 µM, 7x7, partner max 1 µM)
OUT: -0.0508

IN: Cool, now CC1(C)CCC(CN2CCN(c3ccc(C(=O)NS(=O)(=O)c4ccc(NCC5CCOCC5)c([N+](=O)[O-])c4)c(Oc4cnc5[nH]ccc5c4)c3)CC2)=C(c2ccc(Cl)cc2)C1 [Venetoclax] + Cc1cc2ncnn2cc1Nc1ncc2c(n1)n(C1CCOCC1)c(=O)n2C [AZD7648] (first compound max 1 µM, 7x7, partner max 10 µM)
OUT: -0.0359

IN: Cool, now C[C@@H](Oc1cc(-c2cnn(C3CCNCC3)c2)cnc1N)c1c(Cl)ccc(F)c1Cl [Crizotinib] + Cn1cnc2c(F)c(Nc3ccc(Br)cc3Cl)c(C(=O)NOCCO)cc21 [Selumetinib] (first compound max 10 µM, 7x7, partner max 10 µM)
OUT: -0.0552

IN: Cool, now CN(CCO)CC[C@H](CSc1ccccc1)Nc1ccc(S(=O)(=O)NC(=O)c2ccc(N3CCC([C@@H](O)c4ccccc4-c4ccc(Cl)cc4)CC3)cc2)cc1S(=O)(=O)C(F)(F)F [AZD4320] + CS(=O)(=O)CCNCc1ccc(-c2ccc3ncnc(Nc4ccc(OCc5cccc(F)c5)c(Cl)c4)c3c2)o1 [Lapatinib] (first compound max 1 µM, 7x7, partner max 10 µM)
OUT: -0.0017

###

System: NMC-G1 (Low Grade Glioma)
METHOD_NOTES: combination Emax (second highest fraction inhibited in the dose matrix, 72 h); higher = more inhibition; extreme values may be limits of the assay
READOUT_LABEL: combination Emax
Please state the value as a number alone, without comment.

IN: Need combination Emax, item Cc1c2c(nn1C)CSCc1cc(n(C)n1)CSc1cc(c3ccccc3c1)OCCCc1c(C(=O)O)n(C)c3c-2c(Cl)ccc13 [AZD5991] + CC1(C)CCC(CN2CCN(c3ccc(C(=O)NS(=O)(=O)c4ccc(NCC5CCOCC5)c([N+](=O)[O-])c4)c(Oc4cnc5[nH]ccc5c4)c3)CC2)=C(c2ccc(Cl)cc2)C1 [Venetoclax] (first compound max 1 µM, 7x7, partner max 1 µM)
OUT: 0.157

IN: Cool, now COc1cccc(OCCCN)c1-c1cc(Nc2cnc(C#N)cn2)n[nH]1 [Prexasertib] + CN(C)CCCOc1ccc(-c2ccc3ncc4c(c3c2)n(C2CCOCC2)c(=O)n4C)cn1 [AZD0156] (first compound max 1 µM, 7x7, partner max 1 µM)
OUT: 0.362

IN: Cool, now CC(=O)Nc1cccc(-n2c(=O)n(C3CC3)c(=O)c3c(Nc4ccc(I)cc4F)n(C)c(=O)c(C)c32)c1 [Trametinib] + Cc1nc(-c2cn3c(n2)-c2ccc(-c4cnn(C(C)(C)C(N)=O)c4)cc2OCC3)n(C(C)C)n1 [Taselisib] (first compound max 1 µM, 7x7, partner max 10 µM)
OUT: 0.488
